# ASSAY_TEXT: Metabolic stability in liver microsomes
# Type: in vitro ADME
# ASSAY_CONDITIONS: mouse

{"SMILES_STR": "CCOC(=O)c1cnc2[nH]ccc2c1N[C@@H]1CCCN(C(=O)CC#N)C1", "half-life": "1.66 min"}

###

# TESTED_TARGET: TXK (Homo sapiens, UniProt P42681)
# Sequence (P42681 whole entry): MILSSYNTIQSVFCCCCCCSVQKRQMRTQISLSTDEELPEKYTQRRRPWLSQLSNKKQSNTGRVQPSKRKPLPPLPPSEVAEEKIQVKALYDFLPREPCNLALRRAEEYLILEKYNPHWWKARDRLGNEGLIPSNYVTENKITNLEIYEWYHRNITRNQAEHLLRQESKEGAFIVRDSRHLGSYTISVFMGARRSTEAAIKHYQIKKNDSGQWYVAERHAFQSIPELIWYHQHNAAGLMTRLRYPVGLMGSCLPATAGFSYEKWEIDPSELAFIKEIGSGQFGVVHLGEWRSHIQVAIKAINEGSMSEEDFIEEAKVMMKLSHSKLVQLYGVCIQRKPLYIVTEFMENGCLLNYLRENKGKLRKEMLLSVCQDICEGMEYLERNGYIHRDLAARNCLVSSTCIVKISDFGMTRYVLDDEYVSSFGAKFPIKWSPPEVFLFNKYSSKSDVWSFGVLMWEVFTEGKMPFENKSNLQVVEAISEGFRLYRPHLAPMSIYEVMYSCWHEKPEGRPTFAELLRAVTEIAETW

{"SMILES_STR": "CCOC(=O)c1cnc2[nH]ccc2c1N[C@@H]1CCCN(C(=O)CC#N)C1", "IC50 (nM)": 351}

###

# ASSAY_TEXT: 28-day minipig repeat exposure study: toxicokinetics
# Assay type: in vivo
# ASSAY_CONDITIONS: both, plasma, topical, 80 mg/day
MEASUREMENT_KIND: concentration at 1 h (ng/mL)

{"SMILES_STR": "CCOC(=O)c1cnc2[nH]ccc2c1N[C@@H]1CCCN(C(=O)CC#N)C1", "OBS_VALUE": 0.0995}

###

# ASSAY_TEXT: 28-day minipig repeat exposure study: toxicokinetics
# Format: in vivo
# ASSAY_CONDITIONS: both, plasma, topical, 40 mg/day

{"SMILES_STR": "CCOC(=O)c1cnc2[nH]ccc2c1N[C@@H]1CCCN(C(=O)CC#N)C1", "UNIT_ABBREV": "ng/mL", "concentration at 0.5 h": 0.143}

###

# ASSAY_TEXT: Metabolic stability in liver microsomes
# Format: in vitro ADME
# ASSAY_CONDITIONS: rat

{"SMILES_STR": "CCOC(=O)c1cnc2[nH]ccc2c1N[C@@H]1CCCN(C(=O)CC#N)C1", "microsomal CLint, µL/min/mg": 52}

###

# ASSAY_TEXT: 7-day minipig study: plasma pharmacokinetics
# Format: in vivo
# ASSAY_CONDITIONS: male, plasma, topical, 160 mg/day
MEASUREMENT_KIND: concentration at 0 h (ng/mL)

{"SMILES_STR": "CCOC(=O)c1cnc2[nH]ccc2c1N[C@@H]1CCCN(C(=O)CC#N)C1", "OBS_VALUE": 0}

###

# TESTED_TARGET: KDR (VEGFR2) (Homo sapiens)
# Sequence (P35968 20-1356): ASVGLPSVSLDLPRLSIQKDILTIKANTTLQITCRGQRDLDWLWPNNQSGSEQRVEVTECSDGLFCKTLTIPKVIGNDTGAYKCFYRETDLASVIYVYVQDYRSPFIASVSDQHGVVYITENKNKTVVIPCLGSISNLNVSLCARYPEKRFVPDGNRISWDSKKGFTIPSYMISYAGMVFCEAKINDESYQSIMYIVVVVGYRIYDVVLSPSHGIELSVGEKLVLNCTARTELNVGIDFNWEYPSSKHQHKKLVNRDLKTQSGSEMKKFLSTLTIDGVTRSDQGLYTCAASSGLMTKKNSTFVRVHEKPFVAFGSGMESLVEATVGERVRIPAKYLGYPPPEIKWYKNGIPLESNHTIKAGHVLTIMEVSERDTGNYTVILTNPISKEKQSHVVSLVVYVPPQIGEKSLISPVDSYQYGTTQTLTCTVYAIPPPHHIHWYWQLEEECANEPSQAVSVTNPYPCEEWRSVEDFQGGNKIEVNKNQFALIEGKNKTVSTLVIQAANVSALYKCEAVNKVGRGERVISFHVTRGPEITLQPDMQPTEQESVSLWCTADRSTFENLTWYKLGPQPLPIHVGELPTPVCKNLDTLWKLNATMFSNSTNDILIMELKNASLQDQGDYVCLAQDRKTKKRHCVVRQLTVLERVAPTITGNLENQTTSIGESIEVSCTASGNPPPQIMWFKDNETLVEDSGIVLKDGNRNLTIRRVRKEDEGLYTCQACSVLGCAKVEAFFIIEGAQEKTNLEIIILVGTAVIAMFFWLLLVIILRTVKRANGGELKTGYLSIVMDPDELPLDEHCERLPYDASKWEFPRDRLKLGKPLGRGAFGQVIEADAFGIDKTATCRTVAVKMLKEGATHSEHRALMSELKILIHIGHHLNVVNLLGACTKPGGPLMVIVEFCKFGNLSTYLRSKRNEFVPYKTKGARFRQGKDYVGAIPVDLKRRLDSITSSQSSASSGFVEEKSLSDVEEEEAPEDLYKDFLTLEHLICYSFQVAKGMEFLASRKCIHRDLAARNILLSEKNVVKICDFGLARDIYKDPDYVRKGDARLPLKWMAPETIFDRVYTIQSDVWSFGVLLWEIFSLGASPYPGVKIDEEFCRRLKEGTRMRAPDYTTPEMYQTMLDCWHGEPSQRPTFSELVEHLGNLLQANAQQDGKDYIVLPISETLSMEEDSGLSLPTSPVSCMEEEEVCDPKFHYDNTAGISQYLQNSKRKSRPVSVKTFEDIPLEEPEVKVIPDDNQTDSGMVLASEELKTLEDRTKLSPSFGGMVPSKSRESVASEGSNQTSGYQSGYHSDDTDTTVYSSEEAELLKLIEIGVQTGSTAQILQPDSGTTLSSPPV
pIC50: −log10 of the molar value.

{"SMILES_STR": "CCOC(=O)c1cnc2[nH]ccc2c1N[C@@H]1CCCN(C(=O)CC#N)C1", "TESTED_TARGET": "KDR (VEGFR2) (Homo sapiens)", "pIC50": 6.90}

###

# ASSAY_TEXT: 28-day minipig repeat exposure study: toxicokinetics
# Assay type: in vivo
# ASSAY_CONDITIONS: both, plasma, topical, 160 mg/day

{"COMPOUND": "CCOC(=O)c1cnc2[nH]ccc2c1N[C@@H]1CCCN(C(=O)CC#N)C1 [ATI-1777]", "UNIT_ABBREV": "ng/mL", "concentration at 0.5 h": 0.479}

###

# ASSAY_TEXT: 28-day minipig repeat exposure study: toxicokinetics
# Format: in vivo
# ASSAY_CONDITIONS: both, plasma, topical, 80 mg/day

{"MOLECULE": "CCOC(=O)c1cnc2[nH]ccc2c1N[C@@H]1CCCN(C(=O)CC#N)C1 [ATI-1777]", "concentration at 4 h [ng/mL]": 0.193}

###

# ASSAY_TEXT: 7-day minipig study: plasma pharmacokinetics
# Type: in vivo
# ASSAY_CONDITIONS: male, plasma, topical, 160 mg/day
MEASUREMENT_KIND: concentration at 12 h (µg/mL)

{"COMPOUND": "CCOC(=O)c1cnc2[nH]ccc2c1N[C@@H]1CCCN(C(=O)CC#N)C1 [ATI-1777]", "OBS_VALUE": 0}
